Cited source: patent US10807985B2

- Subject of test: KIT D816V kinase activity (KIT autophosphorylation at tyrosine 719) in HMC1.2 cells (Homo sapiens (Human), UniProt P10721, D816V/V560G)
- Sequence (P10721 26-976 V560G/D816V): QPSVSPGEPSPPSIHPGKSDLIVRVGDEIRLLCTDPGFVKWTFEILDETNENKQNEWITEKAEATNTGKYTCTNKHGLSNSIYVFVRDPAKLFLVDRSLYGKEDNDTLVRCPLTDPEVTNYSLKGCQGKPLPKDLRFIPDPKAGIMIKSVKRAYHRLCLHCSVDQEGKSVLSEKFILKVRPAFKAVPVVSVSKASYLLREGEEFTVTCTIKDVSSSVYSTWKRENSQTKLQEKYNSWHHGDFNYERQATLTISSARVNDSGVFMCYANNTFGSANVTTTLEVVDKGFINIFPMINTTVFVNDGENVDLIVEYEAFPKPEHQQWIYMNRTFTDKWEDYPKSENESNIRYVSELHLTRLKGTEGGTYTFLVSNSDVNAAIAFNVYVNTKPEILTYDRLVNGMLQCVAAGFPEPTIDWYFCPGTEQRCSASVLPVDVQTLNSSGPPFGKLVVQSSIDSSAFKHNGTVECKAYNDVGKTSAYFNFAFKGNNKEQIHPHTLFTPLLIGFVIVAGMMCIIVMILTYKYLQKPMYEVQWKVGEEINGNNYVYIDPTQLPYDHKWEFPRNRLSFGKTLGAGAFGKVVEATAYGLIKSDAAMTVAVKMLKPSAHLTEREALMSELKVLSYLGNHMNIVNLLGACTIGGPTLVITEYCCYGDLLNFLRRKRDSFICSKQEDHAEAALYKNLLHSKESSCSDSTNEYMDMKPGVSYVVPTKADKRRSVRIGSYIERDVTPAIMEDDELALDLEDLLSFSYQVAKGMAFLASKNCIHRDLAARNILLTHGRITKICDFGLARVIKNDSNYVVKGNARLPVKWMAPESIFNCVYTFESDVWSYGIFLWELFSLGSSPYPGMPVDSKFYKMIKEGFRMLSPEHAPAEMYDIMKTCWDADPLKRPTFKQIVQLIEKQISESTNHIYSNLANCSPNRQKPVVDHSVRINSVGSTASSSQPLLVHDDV
- Assay info: HMC1.2 autophosphorylation assay (phospho-Y719 c-KIT AlphaLISA)
- Experimental context: HMC1.2 mast cell leukemia cell line (KIT V560G, D816V), 90 minutes compound; read-out: INH-KIT-PHOS-HMC1.2
pIC50: −log10 of the molar value.
Property: pIC50

>>> print(df.to_string())
                                    compound        result
 0  Cn1cc(-c2cc3c(N4CCN(c5ncc([C@@](C)(O)c6ccc(F)cn6)cn5)CC4)ncnn3c2)cn1  6.00 to 7.00
 1  C=C(c1ccc(F)cc1)c1cnc(N2CCN(c3ncnn4cc(-c5cnn(C)c5)cc34)CC2)nc1  6.00 to 7.00
 2  CCn1cc(-c2cc3c(N4CCN(c5ncc([C@@](C)(O)c6ccc(F)cc6)cn5)CC4)ncnn3c2)cn1        > 7.30
 3  CC[C@@](O)(c1ccc(F)cc1)c1cnc(N2CCN(c3ncnn4cc(-c5cnn(C)c5)cc34)CC2)nc1        > 7.30
 4  Cc1ccc(-c2cc3c(N4CCN(c5ncc([C@@](C)(O)c6ccc(F)cc6)cn5)CC4)ncnn3c2)cn1        > 7.30
 5  Cn1cc(-c2cc3c(N4CCN(c5ncc([C@@](C)(O)c6ccccc6)cn5)CC4)ncnn3c2)cn1        > 7.30
 6  C[C@](O)(c1cnc(N2CCN(c3ncnn4cc(-c5cn[nH]c5)cc34)CC2)nc1)c1ccc(F)cc1F        > 7.30
 7  N#Cc1ccc(-c2cc3c(N4CCN(c5ncc(Cc6ccccc6)cn5)CC4)ncnn3c2)cc1  6.00 to 7.00
 8  C[C@](O)(c1ccc(F)cc1)c1cnc(N2CCN(c3ncnn4cc(-c5ccccc5)cc34)CC2)nc1  7.00 to 7.30
 9  CO[C@](C)(c1ccc(F)cc1)c1cnc(N2CCN(c3ncnn4cc(-c5cnn(C)c5)cc34)CC2)nc1        > 7.30
10  Fc1ccccc1Sc1cnc(N2CCN(c3ncnn4cc(-c5cnn(C[C@@H]6CNCCO6)c5)cc34)CC2)nc1  7.00 to 7.30
11  CO[C@@](C)(c1ccc(F)cc1)c1cnc(N2CCN(c3ncnn4cc(-c5cnn(C)c5)cc34)CC2)nc1  6.00 to 7.00
12  Cn1cc(-c2cc3c(N4CCN(c5ncc([C@](N)(c6ccc(F)cc6)C(F)F)cn5)CC4)ncnn3c2)cn1  6.00 to 7.00
13  CC[C@@H](c1ccc(F)cc1)c1cnc(N2CCN(c3ncnn4cc(-c5cnn(C)c5)cc34)CC2)nc1 (single isomer, unassigned)  7.00 to 7.30

###

- Subject of test: KIT D816V kinase activity (KIT autophosphorylation at tyrosine 719) in HMC1.2 cells (Homo sapiens (Human), UniProt P10721, D816V/V560G)
- Assay info: HMC1.2 autophosphorylation assay (phospho-Y719 c-KIT AlphaLISA)
- Experimental context: HMC1.2 mast cell leukemia cell line (KIT V560G, D816V), 90 minutes compound; read-out: INH-KIT-PHOS-HMC1.2
pIC50: −log10 of the molar value.
Below, each entry is listed alongside its reported pIC50.
Property: pIC50

>>> print(df.to_string())
                                    compound        result
 0  Cn1cc(-c2cc3c(N4CCN(c5ncc([C@](O)(CF)c6ccc(F)cc6)cn5)CC4)ncnn3c2)cn1        > 7.30
 1  Cn1cc(-c2cc3c(N4CCN(c5ncc([C@@](C)(N)c6ccccc6)cn5)CC4)ncnn3c2)cn1        > 7.30
 2  Cn1cc(-c2cc3c(N4CCN(c5ncc([C@@](N)(c6ccc(F)cc6)C(F)F)cn5)CC4)ncnn3c2)cn1        > 7.30
 3  Cn1cc(-c2cc3ncnc(N4CCN(c5ncc(C(C)(C)c6ccc(F)cc6)cn5)CC4)n3n2)cn1  5.00 to 6.00
 4  Cc1nn(C)cc1-c1cc2c(N3CCN(c4ncc([C@@](C)(O)c5ccc(F)cc5)cn4)CC3)ncnn2c1 (single isomer, unassigned)        > 7.30
 5  CC(C)(C)OC(=O)N1CC=C(c2cc3c(N4CCN(c5ncc([C@@](C)(O)c6ccc(F)cc6)cn5)CC4)ncnn3c2)CC1        > 7.30
 6  C[C@@H](c1ccccc1)c1cnc(N2CCN(c3ncnn4cc(-c5cnn(C)c5)cc34)CC2)nc1        > 7.30
 7  COc1ccc(-c2cc3c(N4CCN(c5ncc(Cc6ccccc6)cn5)CC4)ncnn3c2)cc1        < 5.00
 8  Cc1ccc(-c2cc3c(N4CCN(c5ncc([C@@](C)(O)c6ccc(F)cc6)cn5)CC4)ncnn3c2)s1  6.00 to 7.00
 9  CC[C@H](c1ccc(F)cc1)c1cnc(N2CCN(c3ncnn4cc(-c5cnn(C)c5)cc34)CC2)nc1 (single isomer, unassigned)  6.00 to 7.00
10  Cn1cc(-c2cc3c(N4CCN(c5ncc([C@](C)(O)c6ccc(Cl)cc6)cn5)CC4)ncnn3c2)cn1        > 7.30
11  Cn1cc(-c2cn3ncnc(N4CCN(c5ncc([C@@](C)(O)c6ccc(F)cc6)cn5)CC4)c3c2F)cn1  5.00 to 6.00
12  Cn1cc(-c2cc3c(N4CCN(c5ncc([C@](C)(O)c6c(F)cccc6F)cn5)CC4)ncnn3c2)cn1  7.00 to 7.30
13  Cn1cc(-c2cc3c(N4CCN(c5ncc(C(C)(C)c6ccccc6)cn5)CC4)ncnn3c2)cn1        > 7.30

###

Below, each entry is listed alongside its reported IC50.
- Subject of test: KIT D816V kinase activity (KIT autophosphorylation at tyrosine 719) in HMC1.2 cells (Homo sapiens (Human), UniProt P10721, D816V/V560G)
- Assay info: HMC1.2 autophosphorylation assay (phospho-Y719 c-KIT AlphaLISA)
- Experimental context: HMC1.2 mast cell leukemia cell line (KIT V560G, D816V), 90 minutes compound; read-out: INH-KIT-PHOS-HMC1.2
Property: IC50

                            compound_smiles          result
0  COc1cc(OC)cc(-c2cc3c(N4CCN(c5ccccc5)CC4)ncnn3c2)c1      > 10000 nM
1  Cn1cc(-c2cc3c(N4CCN(c5ncc([C@](C)(CO)c6ccc(F)cc6)cn5)CC4)ncnn3c2)cn1         < 50 nM
2  Cn1cc(-c2cc3c(N4CCN(c5ncc([C@@](C)(N)c6c(F)cc(F)cc6F)cn5)CC4)ncnn3c2)cn1         < 50 nM
3  C[C@@H]1CN(c2ncnn3cc(-c4cnn(C)c4)cc23)CCN1c1ncc(Cc2ccccc2)cn1  100 to 1000 nM
4  COc1ccc(-c2cc3c(N4CCN(c5ncc([C@@](C)(O)c6ccc(F)cc6)cn5)CC4)ncnn3c2)cc1    50 to 100 nM
5  C[C@@](O)(c1ccc(F)cc1)c1cnc(N2CCN(c3ncnn4cc(-c5cn[nH]c5)cc34)CC2)nc1    50 to 100 nM
6  Cn1cc(-c2cc3c(N4CCN(c5ncc(Oc6ccc(F)cc6)cn5)CC4)ncnn3c2)cn1  100 to 1000 nM

###

- Subject of test: KIT D816V kinase activity (KIT autophosphorylation at tyrosine 719) in HMC1.2 cells (Homo sapiens (Human), UniProt P10721, D816V/V560G)
- Assay info: HMC1.2 autophosphorylation assay (phospho-Y719 c-KIT AlphaLISA)
- Experimental context: HMC1.2 mast cell leukemia cell line (KIT V560G, D816V), 90 minutes compound; read-out: INH-KIT-PHOS-HMC1.2
Below, each entry is listed alongside its reported IC50.
Property: IC50

                            compound_smiles        result
0  Cn1cc(-c2cc3c(N4CCN(c5ncc([C@@](C)(O)c6ccccc6F)cn5)CC4)ncnn3c2)cn1       < 50 nM
1  Cn1cc(-c2cc3c(N4CCN(c5ncc([C@@](C)(O)c6ccc(Cl)cc6)cn5)CC4)ncnn3c2)cn1       < 50 nM
2  C[C@](N)(c1ccccc1)c1cnc(N2CCN(c3ncnn4cc(-c5ccc(F)cc5)cc34)CC2)nc1  50 to 100 nM
3  COc1ccc(-c2cc3c(N4CCN(c5ccccc5)CC4)ncnn3c2)cc1    > 10000 nM

###

- Subject of test: PDGFRA D842V (Homo sapiens (Human), UniProt P16234, D842V)
- Sequence (P16234 24-1089 D842V): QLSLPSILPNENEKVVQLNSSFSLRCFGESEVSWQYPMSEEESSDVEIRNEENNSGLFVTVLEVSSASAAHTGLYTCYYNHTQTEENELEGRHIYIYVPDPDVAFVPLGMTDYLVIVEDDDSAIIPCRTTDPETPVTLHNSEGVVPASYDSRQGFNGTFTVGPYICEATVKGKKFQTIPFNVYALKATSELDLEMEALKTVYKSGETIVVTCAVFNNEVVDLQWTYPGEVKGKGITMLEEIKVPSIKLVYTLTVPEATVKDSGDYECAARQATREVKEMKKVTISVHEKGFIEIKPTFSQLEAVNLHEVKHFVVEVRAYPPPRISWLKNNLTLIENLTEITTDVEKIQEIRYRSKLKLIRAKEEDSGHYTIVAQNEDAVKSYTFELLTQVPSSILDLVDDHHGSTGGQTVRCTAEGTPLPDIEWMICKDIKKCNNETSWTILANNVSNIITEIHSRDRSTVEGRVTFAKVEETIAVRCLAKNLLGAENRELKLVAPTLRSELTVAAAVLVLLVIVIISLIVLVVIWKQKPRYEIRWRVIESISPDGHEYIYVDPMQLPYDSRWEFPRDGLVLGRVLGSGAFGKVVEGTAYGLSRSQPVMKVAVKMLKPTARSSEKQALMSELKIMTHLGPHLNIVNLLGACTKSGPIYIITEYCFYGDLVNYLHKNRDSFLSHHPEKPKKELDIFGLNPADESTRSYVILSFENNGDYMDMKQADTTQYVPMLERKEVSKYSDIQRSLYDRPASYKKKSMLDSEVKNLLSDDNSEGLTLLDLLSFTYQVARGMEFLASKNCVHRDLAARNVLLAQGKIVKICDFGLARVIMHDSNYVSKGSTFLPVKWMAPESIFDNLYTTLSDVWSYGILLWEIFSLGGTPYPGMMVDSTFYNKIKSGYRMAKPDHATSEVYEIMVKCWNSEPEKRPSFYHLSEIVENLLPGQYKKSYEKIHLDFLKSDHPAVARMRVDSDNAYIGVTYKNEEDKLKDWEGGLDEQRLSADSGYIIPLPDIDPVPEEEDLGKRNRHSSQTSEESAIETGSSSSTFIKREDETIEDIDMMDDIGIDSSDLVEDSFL
- Assay info: PDGFRA D842V assay at Km (Caliper electrophoretic mobility shift)
- Experimental context: biochemical, 15 uM ATP (Km), 90 minutes at 25 C; read-out: INH PDFGRA D842V
Property: IC50

>>> df
                                   molecule         result
0  Cn1cc(-c2cc3c(N4CCN(c5ncc([C@](C)(N)c6ccc(F)cc6F)cn5)CC4)ncnn3c2)cn1 [Compound 86]         < 1 nM
1  COc1ccc(-c2cc3c(N4CCN(c5ncc(Cc6ccccc6)cn5)CC4)ncnn3c2)cc1 [Compound 18]   10 to 100 nM
2  Cn1cc(-c2cc3c(N4CCN(c5ncc(C(C)(C)c6ccc(F)cc6)cn5)CC4)ncnn3c2)cn1 [Compound 39]         < 1 nM
3  CCn1cc(-c2cc3c(N4CCN(c5ncc([C@@](C)(N)c6ccccc6)cn5)CC4)ncnn3c2)cn1 [Compound 35]         < 1 nM
4  CO[C@](C)(c1ccc(F)cc1)c1cnc(N2CCN(c3ncnn4cc(-c5cnn(C)c5)cc34)CC2)nc1 [Compound 68]  1.01 to 10 nM
5  C[C@@](O)(c1cnc(N2CCN(c3ncnn4cc(-c5cn[nH]c5)cc34)CC2)nc1)c1ccc(F)cc1F [Compound 58]         < 1 nM
6  C[C@](O)(c1ccc(F)cc1)c1cnc(N2CCN(c3ncnn4cc(-c5ccccc5)cc34)CC2)nc1 [Compound 38]  1.01 to 10 nM
